Entries annotated with measured log10 IC50
Target: pERK1/2 (Thr202/Tyr204), PANC-1 (KRAS G121D) (Homo sapiens, UniProt P01116, G12D)
Construct: pERK1/2 HTRF read-out
Sequence (P01116 1-188 isoform P01116-2 G12D): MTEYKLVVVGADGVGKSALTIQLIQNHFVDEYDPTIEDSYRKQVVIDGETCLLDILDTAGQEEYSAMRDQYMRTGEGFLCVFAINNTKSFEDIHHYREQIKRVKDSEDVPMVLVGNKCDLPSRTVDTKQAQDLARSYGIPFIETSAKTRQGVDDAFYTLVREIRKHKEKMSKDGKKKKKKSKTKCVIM
Experiment: Assay of intracellular pERK1/2 (Thr202/Tyr204) phosphorylation in PANC-1 cells (KRAS G12D)
Type: cell-based
Settings: pERK1/2, 2 days, read-out: PANC-1 (KRAS G12D) IC50
property: log10 IC50 (log10 of the value in nM)

- compound: "CCC(c1cccnc1N)N1CCOc2nc(-c3cc(N)c(F)c(C)c3C(F)(F)F)c(F)c3nc(OC[C@@]45CCCN4C[C@H](F)C5)nc1c23 (single isomer, unassigned)"
  assay-target: "pERK1/2 (Thr202/Tyr204), PANC-1 (KRAS G121D) (Homo sapiens, UniProt P01116, G12D)"
  log10 IC50: 0.78
- compound: "CC(c1cccnc1N)N1c2nc(OC[C@@]34CCCN3C[C@H](F)C4)nc3c(F)c(-c4c5ccccc5cc5[nH]ncc45)nc(c23)O[C@H]2CCC[C@@H]21 (some centres unmarked)"
  assay-target: "pERK1/2 (Thr202/Tyr204), PANC-1 (KRAS G121D) (Homo sapiens, UniProt P01116, G12D)"
  log10 IC50: 2.42
- compound: "CC(c1cccnc1N)N1c2nc(OC[C@@]34CCCN3C[C@H](F)C4)nc3c(F)c(-c4cc(N)cc(Cl)c4)nc(c23)OC[C@@H]1C (some centres unmarked)"
  assay-target: "pERK1/2 (Thr202/Tyr204), PANC-1 (KRAS G121D) (Homo sapiens, UniProt P01116, G12D)"
  log10 IC50: 1.97
- compound: "[2H]C1([2H])Oc2nc(-c3cc(N)c(F)c(C)c3C(F)(F)F)c(F)c3nc(OC[C@@H]4C[C@@H](F)CN4C)nc(c23)N(C(C)c2cccnc2N)C1([2H])[2H] (single isomer, unassigned) [Compound 202]"
  assay-target: "pERK1/2 (Thr202/Tyr204), PANC-1 (KRAS G121D) (Homo sapiens, UniProt P01116, G12D)"
  log10 IC50: 1.11
- compound: "Cc1cc2[nH]ncc2c(-c2nc3c4c(nc(OC[C@@]56CCCN5C[C@H](F)C6)nc4c2F)N(C(C)c2cccnc2N)CCO3)c1C(F)(F)F (some centres unmarked)"
  assay-target: "pERK1/2 (Thr202/Tyr204), PANC-1 (KRAS G121D) (Homo sapiens, UniProt P01116, G12D)"
  log10 IC50: 0.60
- compound: "Cc1c(C(F)(F)F)c(-c2nc3c4c(nc(OC[C@@]56CCCN5C[C@H](F)C6)nc4c2F)N(C(C)c2cccnc2N)[C@@H](C)CO3)c2c(C)n[nH]c2c1F (some centres unmarked) [Compound 380]"
  assay-target: "pERK1/2 (Thr202/Tyr204), PANC-1 (KRAS G121D) (Homo sapiens, UniProt P01116, G12D)"
  log10 IC50: 0.00
- compound: "Cc1c(F)c(N)cc(-c2nc3c4c(nc(OC[C@@]56CCCN5C[C@H](F)C6)nc4c2F)N(Cc2cccnc2N)CCO3)c1C(F)(F)F"
  assay-target: "pERK1/2 (Thr202/Tyr204), PANC-1 (KRAS G121D) (Homo sapiens, UniProt P01116, G12D)"
  log10 IC50: 1.54
- compound: "CC(c1cccnc1N)N1CCOc2nc(-c3cc(N)ccc3C(F)(F)F)c(F)c3nc(OC[C@@]45CCCN4C[C@H](F)C5)nc1c23 (some centres unmarked) [Compound 18]"
  assay-target: "pERK1/2 (Thr202/Tyr204), PANC-1 (KRAS G121D) (Homo sapiens, UniProt P01116, G12D)"
  log10 IC50: 1.73
